Origin of measurements: patent US20250339569A1

Assay: Biodistribution study (SPECT/CT) in SK-RC-52 tumor-bearing mice with or without gelofusine
Assay type: in vivo, NMRI nude mice
Conditions: female, NMRI nude, mouse, in vivo, iv, total radioactivity, SK-RC-52 model, with gelofusine, 24 hours post injection; read-out: kidney uptake

| molecule | tissue uptake at 24 h, %ID/g |
| --- | --- |
| CC(C)C[C@@H]1NC(=O)[C@H](Cc2cccc(NC(=O)CCCS(N)(=O)=O)c2)NC(=O)[C@H](CC(=O)O)NC(=O)[C@H]2CCCN2C(=O)[C@H](CCC(=O)O)NC(=O)[C@@H](NC(=O)[C@H](CCC(N)=O)NC(=O)CN2CCN(C(=O)CN3CCN(CC(=O)O)CCN(CC(=O)O)CCN(CC(=O)O)CC3)CC2)CSCc2cccc(c2)CSC[C@@H](C(N)=O)NC(=O)[C@H](CO)NC(=O)[C@H](Cc2c[nH]c3ccccc23)NC(=O)[C@H]([C@@H](C)O)NC1=O [[^111In]In-DPI-4452, metal not drawn] | 0.73 |
